Tested on: DU-145 prostate
measurementProtocol: NCI tumour cell line growth inhibition, 48 h
*1 amine or outer side, *2 acyl side, *3 side chain or, on linkers, in order; H or OH if unused. Where a SMILES comes first, the peptide text is derived from it. Bridges are numbered along the chain shown (N, C = ends). Roman numbers before positions name the chains, in order. [ ]: non-standard residue; d: D form. Actinocin(9to1) = Cc1c2oc3c(C)ccc(C(=O)[*:1])c3nc-2c(C(=O)[*:2])c(N)c1=O; NMeT = CN[CH](C(=O)O)[CH](C)O; Sar = CNCC(=O)O
measuredParameter: TGI

1) CN(C)CC1CN=C(N)O1 (stereo unspecified) | > 100 µM
2) COc1ccc(-c2cc(-c3cccn3C)c(C#N)c(=O)[nH]2)cc1OC | > 100 µM
3) CCCCN1CN2C(=O)C(C(=O)OCC)C(=O)c3sc4nc(SC)nc1c4c32 (stereo unspecified) | 35.4 µM
4) CCN(Cc1ccccc1)c1ccc(CO)c(Cl)c1 | > 59.4 µM
5) O=C(O)C1CCCCC1C(=O)Nn1cnnc1 (stereo unspecified) | > 100 µM
6) Clc1ccc(OCc2nnc(CCCCCCCCc3nnc(COc4ccc(Cl)cc4Cl)n3Nc3ccccc3)n2Nc2ccccc2)c(Cl)c1 | > 62.7 µM
7) N#CC(C#N)=C/C=C(\Sc1c(Cl)c(Cl)nc(Cl)c1Cl)c1ccc(Cl)cc1 | 47.5 µM
8) CCCCCCc1ccc(C(=O)NO)cc1 | 68.4 µM
9) Cc1cc(C)nc(NS(=O)(=O)c2ccc(NNc3c4ccccc4nc4c(C(=O)Nc5ccc(S(N)(=O)=O)cc5)cccc34)cc2)n1 | > 100 µM
10) Cc1cc(O)cc2c1[C@]1(C)CCC3C(C)(C)CCC[C@]3(C)[C@H]1C2 (stereo partly specified) | 35 µM
11) CC(=O)N1C/C(=C/c2ccc(Cl)cc2)C(=O)/C(=C/c2ccc(Cl)cc2)C1 | 2.62 µM
12) Cc1cccc2c1C(=O)[C@](C)([C@]1(C)Nc3cccc(C)c3C1=O)N2 | > 100 µM
13) COC(=O)c1ccccc1C1CN=NC12Cc1ccccc1C2=O (stereo unspecified) | > 100 µM
14) Cc1c2oc3c(C)ccc(C(=O)NC4C(=O)NC(C(C)C)C(=O)N5CCCC5C(=O)N(C)CC(=O)N(C)C(C(C)O)C(=O)OC4C)c3nc-2c(C(=O)NC2C(=O)NC(C(C)C)C(=O)N3CCCC3C(=O)N(C)CC(=O)N(C)C(C(C)O)C(=O)OC2C)c(N)c1=O (stereo unspecified) (I: TVP[Sar][NMeT] / II: TVP[Sar][NMeT]; ester I:1-I:C, II:1-II:C; linker I:N-II:N via Actinocin(9to1); configuration not given here) | > 100 µM
15) O=S(=O)(c1ccccc1)C(c1ccc2ccccc2n1)S(=O)(=O)c1ccccc1 | > 100 µM
16) CCOC(=O)CCC(NC(=O)c1ccc(Oc2nc3ccccc3nc2-c2ccccc2)cc1)C(=O)OCC (stereo unspecified) | > 100 µM
17) C=C1C(=O)O[C@H]2[C@H]1CC/C(COC(=O)C(=O)c1cn(C)c3ccc(Cl)cc13)=C\CC[C@@]1(C)O[C@@H]21 | 3.63 µM
18) O=c1c2cc(-c3ccccc3)sc2nc2n1N=C(c1ccc(Cl)cc1)CS2 | > 100 µM
19) O=C1O/C(=C\c2ccccc2)N(c2ccccc2)C1=O | > 100 µM
20) Cc1cc(=O)oc2c(C)c(O)ccc12 | > 100 µM
21) CCCCCCCCCCCCCCCCCCN(C)C(COC)COP(=O)([O-])OCC[N+](C)(C)C (stereo unspecified) | 24.5 µM
22) CCC(C(=O)C(=O)C(CC)P1(=O)OC(C)(C)CN1C(C)(C)C)P1(=O)OC(C)(C)CN1C(C)(C)C (stereo unspecified) | > 100 µM
23) Cc1n[nH]c(=O)n1/N=C/c1ccc(F)cc1 | > 100 µM
24) CS(=O)(=O)CCNCc1ccc(-c2ccc3ncnc(Nc4ccc(OCc5ccccc5)c(Br)c4)c3c2)o1 | > 25 µM
25) Clc1nssc1=Nc1nonc1-c1ccccc1 | 53.5 µM
26) Cc1c(S(=O)(=O)O)ccc(N=Nc2c(O)c(C(=O)O)cc3ccccc23)c1Cl | > 100 µM
